system: NCI-H460; assay: NCI tumour cell line growth inhibition, 48 h
Active and inactive are the calls of the source. No stated cut-off is given here; in the data, active = GI50 up to about 1.1 µM and inactive = higher.
Outcome codes: active, inactive

[[record]]
compound = "CC(C)[Si](Oc1cc2c3c(ccc2c(O)c1[C@@H](C)CO[Si](C)(C)C(C)(C)C)C(C)(C)CCC3)(C(C)C)C(C)C"
measured_target = "NCI-H460"
group_label = "inactive"

[[record]]
compound = "CN1CCCC(OC(=O)c2cc3cc(CCl)ccc3oc2=O)C1 (stereo not given)"
measured_target = "NCI-H460"
group_label = "inactive"

[[record]]
compound = "COc1ccc(/N=C2/SC(=N/N=c3\\sc4ccccc4n3C)S/C2=N/c2ccc(OC)cc2)cc1"
measured_target = "NCI-H460"
group_label = "inactive"

[[record]]
compound = "O=C1C(Cl)C(c2cc3cc(Br)ccc3nc2Cl)N1c1c(Cl)cccc1Cl (stereo not given)"
measured_target = "NCI-H460"
group_label = "inactive"

[[record]]
compound = "CCOC(=O)NC(C(F)(F)F)(C(F)(F)F)P(=O)(OC(C)C)OC(C)C"
measured_target = "NCI-H460"
group_label = "inactive"

[[record]]
compound = "CN(C)CCNC(=O)c1cccc2c(NC(CCCNC(=N)N)C(=O)O)c3ccccc3[n+](C)c12 (stereo not given)"
measured_target = "NCI-H460"
group_label = "inactive"

[[record]]
compound = "COc1cc(C2C3=C(CCC3=O)Oc3cc4c(cc32)OCO4)cc(OC)c1OC (stereo not given)"
measured_target = "NCI-H460"
group_label = "active"

[[record]]
compound = "O=C(O)C(CS)Nc1c2ccccc2nc2ccccc12 (stereo not given)"
measured_target = "NCI-H460"
group_label = "inactive"

[[record]]
compound = "CCP(=O)(OC)C1=CCN(C(=O)OCC[Si](C)(C)C)CC1 (stereo not given)"
measured_target = "NCI-H460"
group_label = "inactive"

[[record]]
compound = "CC(C)(C)CNCCO"
measured_target = "NCI-H460"
group_label = "inactive"


====

test system: KM-20L2; assay: NCI tumour cell line growth inhibition, 48 h
The source made the active and inactive calls. Rule as the data show it: active = GI50 up to about 1.1 µM and inactive = higher.
Recorded GI50 by entry
MEASURED_PROPERTY: GI50

[[record]]
molecule = "CCCCCCCCCOC(=S)NC"
measured_target = "KM-20L2"
measured_property = "GI50"
meas_value = "18 µM (inactive)"

[[record]]
molecule = "COc1cc(C2C3=C(CCC3=O)Oc3cc4c(cc32)OCO4)cc(OC)c1OC (stereo unspecified)"
measured_target = "KM-20L2"
measured_property = "GI50"
meas_value = "0.238 µM (active)"

[[record]]
molecule = "Cc1ccc2c(c1CCCC(C)(C)O)C(=O)C(O)=C(C(C)C)C2=O"
measured_target = "KM-20L2"
measured_property = "GI50"
meas_value = "> 100 µM (inactive)"

[[record]]
molecule = "COc1ccc(/C=C/COC(C)=O)cc1OC"
measured_target = "KM-20L2"
measured_property = "GI50"
meas_value = "> 100 µM (inactive)"

[[record]]
molecule = "COc1ccc(/C(Cl)=C(\\CN(C)C)c2ccc(OC)c(OC)c2)cc1OC.[B]"
measured_target = "KM-20L2"
measured_property = "GI50"
meas_value = "> 100 µM (inactive)"

[[record]]
molecule = "CCOC(OC1=C(C#N)CCCC1)C(CC)[Se]c1ccccc1[N+](=O)[O-] (stereo unspecified)"
measured_target = "KM-20L2"
measured_property = "GI50"
meas_value = "17.2 µM (inactive)"

